Test system: OVCAR-3 ovarian
Assay: NCI-60 one-dose screen, 48 h (100 = growth as untreated, 0 = no growth, -100 = all killed)
Settings: 10 µM unless noted
This is part of a sample that, as a whole, favours compounds with a hit. Of some 83,000 tested, about 20% had one in any assay.
Reported growth is given for each of the following compounds.
Measurement kind: growth (%)

INSERT INTO assay_data (compound, measurement_kind, measurement_unit, observed_measurement) VALUES
  ('CCN(CC)CCOc1ccccc1-n1c(C)ccc1-c1ccccc1', 'growth', '%', 78.9),
  ('CCOC(=O)C1C(=O)OC2CCCCC21 (configuration not stated)', 'growth', '%', 126),
  ('O=C(/C=C/c1ccc(Cl)cc1)c1ccccc1', 'growth', '%', 101),
  ('CCC1=C(c2ccc(OC)cc2)C(C)(C)Oc2c1ccc(O)c2CN1CCCC1', 'growth', '%', 54.7),
  ('Cc1nnc(Nc2ccc(NC(=O)Nc3ccc(Cl)cc3)cc2)c2ccccc12', 'growth', '%', 44.4),
  ('COc1ccc(-c2nn(-c3cccc(Cl)c3)cc2C2CC(c3ccccc3)=NN2C(C)=O)cc1 (configuration not stated)', 'growth', '%', 80.6),
  ('Cn1c(=O)c2nc(SCc3ccccc3)n(C)c2n(C)c1=O', 'growth', '%', 117),
  ('Cn1cc(-c2csc(-c3cn(C)c4ncccc34)n2)c2cc(F)cnc21', 'growth', '%', 108),
  ('C=C(C)[C@H]1CC/C(C)=C/CC[C@]2(C)O[C@H]2CC/C(C=O)=C\C1O (some centres not stated)', 'growth', '%', 124),
  ('CC(=O)c1nc2ccccc2n1CCn1cc(CC(N)C(=O)O)c2ccccc21 (configuration not stated)', 'growth', '%', 108),
  ('Cc1ccc([N+](=O)[O-])cc1NC(=O)Nc1cccc(F)c1', 'growth', '%', 51.8),
  ('COc1cc2c(c(OC)c1OC)CCc1cnoc1-2', 'growth', '%', 116),
  ('COc1ccc(OC)c(NC(=O)c2cc3oc4ccccc4c3cc2O)c1', 'growth', '%', 137),
  ('COC(=O)CCC1=C(C)/C(=C/c2[nH]c(-c3ccc[nH]3)cc2OC)N=C1C', 'growth', '%', -56.9),
  ('COC(=O)[C@]1(CCSC)N[C@H](c2cn(-c3ccccc3)nc2C)[C@@H]2C(=O)N(c3ccc(C)cc3)C(=O)[C@@H]21', 'growth', '%', 114),
  ('COc1cc2c(cc1OCCCOc1ccc(-c3cc4ccccc4c4ccccc34)cc1)N=C[C@@H]1CCCN1C2=O', 'growth', '%', -48.4),
  ('CC(CCC(=O)O)(NC(=O)c1ccc([N+](=O)[O-])cc1)C(=O)O (configuration not stated)', 'growth', '%', 108),
  ('CCC1(c2ccccc2)Oc2ccccc2-n2c(C#N)c3ccccc3c2C1=O (configuration not stated)', 'growth', '%', 103),
  ('O=C1OCC/C1=C\OCCCO/C=C1\CCOC1=O', 'growth', '%', 110),
  ('Cc1cc(NC(=O)Nc2cc(Cl)ccc2C)no1', 'growth', '%', 117),
  ('COc1ccc(-c2c(N)noc2-c2cc(OC)c3c(c2)OCCO3)cc1', 'growth', '%', -24.2),
  ('Cc1cc(C(=O)O)c(C)cc1C(=O)O', 'growth', '%', 136);
